The measured values listed here are drawn from ChEMBL document CHEMBL1201862.

Measured GI50 accompanies every entry in the list below.
# Test system: SK-MEL-28
# experiment.summary: NCI tumour cell line growth inhibition, 48 h
Activity calls are given as the source filed them. Cut-off read from the data, not from the text of the source: active = GI50 up to about 1.1 µM and inactive = higher.

| molecule | assay.endpoint | result |
| --- | --- | --- |
| N#Cc1c(N)nc(SCc2ccccc2)c(C#N)c1-c1ccc(O)cc1 | GI50 | 13.4 µM (inactive) |
| C=CCNC(=S)NC=C(C(N)=O)C(N)=O | GI50 | > 100 µM (inactive) |
| CC1CC(Br)C(=O)O1 (stereo not given) | GI50 | > 100 µM (inactive) |
| CCOC(=O)NC(=O)c1cn(CCOC(=O)NCCCCCCNC(=O)OCCn2cc(C(=O)NC(=O)OCC)c(=O)[nH]c2=O)c(=O)[nH]c1=O | GI50 | > 100 µM (inactive) |

Reported GI50 for Nc1nc(Br)nc2ncn(C3CC(O)C(CO)O3)c12 (stereo not given) : what is it?
> 100 µM (inactive)

What do you get for CC[C@@]1(O)C(=O)OCc2c1cc1n(c2=O)Cc2c-1nc1ccccc1c2/C=N\NC(=O)C(N)Cc1ccc(O)cc1 (stereo not given in full) ?
6.24 µM (inactive)

What do you get for [O-][S+](Cc1ccccc1)c1nc2ccccc2nc1-c1cccs1 (stereo not given) ?
11.3 µM (inactive)

What do you get for O=C(CCc1cc(-c2ccco2)n(-c2ccc([N+](=O)[O-])cc2[N+](=O)[O-])n1)Nc1ccccc1 ?
> 100 µM (inactive)

What do you get for N#Cc1nc(-c2ccco2)oc1N ?
> 10 µM (inactive)

What do you get for Nc1nc2c3nc(Nc4ccccc4)sc3nc(=S)n2c2sc(Nc3ccccc3)nc12 ?
> 100 µM (inactive)

----------
# Tested on: LOX IMVI
# experiment.summary: NCI tumour cell line growth inhibition, 48 h
Active and inactive are the calls of the source. No stated cut-off is given here; in the data, active = GI50 up to about 1.1 µM and inactive = higher.
assay.endpoint: GI50

| molecule | target.or.test.system | assay.endpoint | result |
| --- | --- | --- | --- |
| Cn1cnc([N+](=O)[O-])c1Sc1nc2ccccc2o1 | LOX IMVI | GI50 | 10.7 µM (inactive) |

Reported GI50 for CCOC(=O)Nc1nn(C)/c(=N/Cc2ccccc2)s1 : what is it?
> 100 µM (inactive)

What do you get for CC(C)[C@@H]1ON1C(C)c1ccccc1 (some centres not stated) ?
> 100 µM (inactive)

What do you get for N#Cc1cc(C#N)c(N)nc1N ?
29.9 µM (inactive)

What do you get for CCCCSC(=CC(=O)c1cccc(C(=O)C=C(SCCCC)SCCCC)n1)SCCCC ?
> 100 µM (inactive)

----------
# System: HOP-18
# experiment.summary: NCI tumour cell line growth inhibition, 48 h
Activity calls are given as the source filed them. Cut-off read from the data, not from the text of the source: active = GI50 up to about 1.1 µM and inactive = higher.
Measured GI50 accompanies every entry in the list below.

Use the examples below as a reference point.
| compound | GI50 |
| --- | --- |
| CCOC(=O)c1cc2c3c(c(O)c(OC)c2s1)N(C(=O)c1cc2c4c(c(O)c(OC)c2s1)N(C(C)=O)CC4)CC3 | > 100 µM (inactive) |
| CCCCCCCC/C=C\CCCCCCCCCCCC(=O)O | 46.2 µM (inactive) |
| Cc1cc2c(=O)cc(-c3ccc(O)cc3)oc2c(C(=O)O)c1C | > 100 µM (inactive) |

Reported GI50 for COc1cc2c3cc1Oc1c(OC)c(OC)cc4c1C(Cc1ccc(cc1)Oc1cc(ccc1O)CC3N(C)CC2)N(C)CC4 (configuration not stated) : what is it?
> 100 µM (inactive)
